system: Staphylococcus aureus (ATCC25923); experiment: Microtitre plate assay, IC90 determination, STA 25923; type: cell-based; details: 90% inhibitory concentration for bacterial growth, 37° C., 24 hours, resazurin fluorescence
Assay metric: IC90 (μg/ml) STA 25923 (µg/mL)

// known answers, use as guide
• COc1nc2ccc(Br)cc2cc1C(c1ccccc1)C(O)(CCN1CCN(C)CC1)c1ccc2ccccc2c1 (racemic) [Compound 137] = 8.4
• CCNCCC(O)(c1ccc(F)cc1F)C(c1ccccc1)c1cc2cc(Br)ccc2nc1OC (racemic) [Compound A] = 10.8
• COc1nc2ccc(Br)cc2cc1C(c1ccccc1)C(O)(CCN(C)C)c1cccc2ccccc12 (stereo not shown) [Compound 13] = 11.1
• COc1nc2ccc(Br)cc2cc1C(c1ccccc1)C(O)(CCN(C)C)c1cccc(F)c1 (stereo not shown) [Compound 39] = 10.4

(1) CSc1nc2ccc(Br)cc2cc1C(c1ccccc1)C(O)(CCN(C)C)c1ccccc1 (stereo not shown) [Compound 33]
(2) CCNCCC(O)(c1ccc(F)cc1F)C(c1ccccc1)c1cc2cc(Br)ccc2nc1OC (racemic) [B]
Inquiry: Quick check, higher IC90 (μg/ml) STA 25923 between 1 and 2 ? Choose, then provide that item's label.
Reply text: 1

---

test system: Streptococcus pneumoniae (ATCC6305); test: Microtitre plate assay, IC90 determination, SPN 6305; assay type: cell-based; settings: Streptococcus pneumoniae, ATCC6305, 24 h, 90% inhibitory concentration for bacterial growth, 37° C., resazurin fluorescence, read-out: IC90 (μg/ml) SPN 6305
Assay metric: IC90 (µg/mL)

• COc1nc2ccc(Br)cc2cc1C(c1ccc(F)cc1)C(O)(CCN(C)C)c1cccc2ccccc12 (stereo not shown) = 12.8

(A) COc1nc2ccc(-c3ccccc3)cc2cc1C(c1ccccc1)C(O)(CCN(C)C)c1cccc2ccccc12 (stereo not shown)
(B) COc1nc2ccc(Br)cc2cc1C(c1ccccc1)C(O)(CCN(C)C)c1ccc(Cl)cc1 (stereo not shown)
(C) COc1nc2ccc(Br)cc2cc1C(c1ccccc1)C(O)(CCN(C)C)c1ccccc1 (stereo not shown)
Inquiry: Put the items in sequence by IC90, from largest down. Please respond with the labels ordered as the question requires.
Reply text: C, A, B

---

system: Staphylococcus aureus (ATCC25923); assay: Microtitre plate assay, IC90 determination, STA 25923; assay type: cell-based; details: Staphylococcus aureus, ATCC25923, 24 h, 90% inhibitory concentration for bacterial growth, 37° C., resazurin fluorescence, read-out: IC90 (μg/ml) STA 25923
Assay metric: IC90 (µg/mL)

Some solved entries appear below for comparison.
• COc1nc2ccc(Br)cc2cc1C(c1ccccc1)C(O)(CCN)c1ccccc1 (stereo not drawn) = 7.6
• COc1nc2ccc(Br)cc2cc1C(c1ccccc1)C(O)(CCN(C)C)c1cccc2ccccc12 (stereo not drawn) = 9.9
• COc1nc2ccc(Br)cc2cc1C(c1ccccc1)C(O)(CCN(C)C)c1cccc(F)c1 (stereo not drawn) = 10.4
• CSc1nc2ccc(Br)cc2cc1C(c1ccccc1)C(O)(CCN(C)C)c1ccccc1 (stereo not drawn) = 9.3

(a) COc1nc2ccc(-c3ccccc3)cc2cc1C(c1ccccc1)C(O)(CCN(C)C)c1ccccc1 (stereo not drawn)
(b) COc1nc2ccc(Br)cc2cc1C(c1ccccc1)C(O)(CCn1ccnc1)c1ccccc1 (stereo not drawn)
Inquiry: Decide: a or b , by lowest recorded IC90. Use the label to indicate which entry you chose.
Reply text: b
(b: 5.9 µg/mL, a: 8.9 µg/mL)

These measurements were taken from patent US7709498B2.
